# STUDY_SYSTEM: Prostaglandin G/H synthase 1 (Homo sapiens, UniProt P23219)
# Sequence (P23219 whole entry): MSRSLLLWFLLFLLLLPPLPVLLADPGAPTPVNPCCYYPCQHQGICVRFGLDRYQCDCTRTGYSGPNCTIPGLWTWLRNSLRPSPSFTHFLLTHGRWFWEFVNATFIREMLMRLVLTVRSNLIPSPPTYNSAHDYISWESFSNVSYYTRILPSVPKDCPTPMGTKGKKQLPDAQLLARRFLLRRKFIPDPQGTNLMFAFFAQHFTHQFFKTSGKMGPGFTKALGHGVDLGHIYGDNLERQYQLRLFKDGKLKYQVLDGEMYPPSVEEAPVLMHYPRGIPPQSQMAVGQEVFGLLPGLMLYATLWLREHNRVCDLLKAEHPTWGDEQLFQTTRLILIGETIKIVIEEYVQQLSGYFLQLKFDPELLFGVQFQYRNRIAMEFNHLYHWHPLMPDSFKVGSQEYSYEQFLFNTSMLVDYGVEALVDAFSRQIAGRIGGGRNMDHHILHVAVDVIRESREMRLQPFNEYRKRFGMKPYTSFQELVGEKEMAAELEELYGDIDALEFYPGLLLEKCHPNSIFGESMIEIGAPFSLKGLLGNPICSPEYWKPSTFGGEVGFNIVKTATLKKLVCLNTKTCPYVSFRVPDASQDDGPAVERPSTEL
# ASSAY_NOTES: biochemical
# Description: Inhibitory activity against human recombinant Prostaglandin G/H synthase 1 expressed in microsomes taken from baculovirus infected Sf9 cells
Provide the reported IC50 of each item.

So for CS(=O)(=O)c1ccc(-n2nnnc2-c2ccc(F)c(F)c2)cc1 , the logged IC50 turned out to be > 100 µM

So for CS(=O)(=O)c1ccc(-c2ncoc2-c2ccc(F)cc2)cc1 , the logged IC50 turned out to be > 100 µM

So for CS(=O)(=O)c1ccc(C2=C(c3ccc(F)cc3)C3CCC2C3)cc1 (stereo unspecified) , the logged IC50 turned out to be > 50 µM

So for CS(=O)(=O)c1ccc(-c2cc(C(F)(F)F)nn2-c2ccc(F)cc2)cc1 , the logged IC50 turned out to be > 1.1 µM

So for CS(=O)(=O)c1ccc(-c2ocnc2-c2ccc(F)cc2)cc1 , the logged IC50 turned out to be > 100 µM

So for Cc1nc(-c2ccc(S(C)(=O)=O)cc2)c(-c2ccc(F)cc2)s1 , the logged IC50 turned out to be > 100 µM

So for CS(=O)(=O)c1ccc(-c2csc(Br)c2-c2ccc(F)cc2)cc1 , the logged IC50 turned out to be 1.2 µM

So for CS(=O)(=O)c1ccc(-c2[nH]nnc2-c2ccccc2)cc1 , the logged IC50 turned out to be > 50 µM

So for CC(C)(O)c1scc(-c2ccc(S(C)(=O)=O)cc2)c1-c1ccc(F)cc1 , the logged IC50 turned out to be > 50 µM

So for CS(=O)(=O)c1ccc(-c2cscc2-c2ccc(F)cc2)cc1 , the logged IC50 turned out to be > 100 µM

So for CS(=O)(=O)c1ccc(-c2cnsc2-c2ccc(F)cc2)cc1 , the logged IC50 turned out to be > 100 µM

So for CS(=O)(=O)c1ccc(-c2snnc2-c2ccc(F)cc2)cc1 , the logged IC50 turned out to be > 100 µM

So for CS(=O)(=O)c1ccc(-c2[nH]cnc2-c2ccc(F)cc2)cc1 , the logged IC50 turned out to be > 100 µM

So for CS(=O)(=O)c1ccc(-c2oc(=O)oc2-c2ccccc2)cc1 , the logged IC50 turned out to be > 50 µM

So for CS(=O)(=O)c1ccc(-c2csc(CC(=O)O)c2-c2ccc(F)cc2)cc1 , the logged IC50 turned out to be > 50 µM

So for CC(C)(O)c1scc(-c2ccc(F)cc2)c1-c1ccc(S(C)(=O)=O)cc1 , the logged IC50 turned out to be > 50 µM

So for CS(=O)(=O)c1ccc(-c2c(-c3ccc(F)cc3)csc2Br)cc1 , the logged IC50 turned out to be > 50 µM

So for CS(=O)(=O)c1ccc(-c2c(-c3ccc(F)cc3)csc2CC(=O)O)cc1 , the logged IC50 turned out to be > 50 µM

So for Cc1nc(-c2ccc(F)cc2)c(-c2ccc(S(C)(=O)=O)cc2)s1 , the logged IC50 turned out to be > 100 µM

So for CS(=O)(=O)c1ccc(-c2sncc2-c2ccc(F)cc2)cc1 , the logged IC50 turned out to be > 100 µM

So for CS(=O)(=O)c1ccc(-c2nnnn2-c2ccc(F)c(F)c2)cc1 , the logged IC50 turned out to be > 50 µM

----------
# STUDY_SYSTEM: Prostaglandin G/H synthase 2 (Homo sapiens, UniProt P35354)
# Sequence (P35354 whole entry): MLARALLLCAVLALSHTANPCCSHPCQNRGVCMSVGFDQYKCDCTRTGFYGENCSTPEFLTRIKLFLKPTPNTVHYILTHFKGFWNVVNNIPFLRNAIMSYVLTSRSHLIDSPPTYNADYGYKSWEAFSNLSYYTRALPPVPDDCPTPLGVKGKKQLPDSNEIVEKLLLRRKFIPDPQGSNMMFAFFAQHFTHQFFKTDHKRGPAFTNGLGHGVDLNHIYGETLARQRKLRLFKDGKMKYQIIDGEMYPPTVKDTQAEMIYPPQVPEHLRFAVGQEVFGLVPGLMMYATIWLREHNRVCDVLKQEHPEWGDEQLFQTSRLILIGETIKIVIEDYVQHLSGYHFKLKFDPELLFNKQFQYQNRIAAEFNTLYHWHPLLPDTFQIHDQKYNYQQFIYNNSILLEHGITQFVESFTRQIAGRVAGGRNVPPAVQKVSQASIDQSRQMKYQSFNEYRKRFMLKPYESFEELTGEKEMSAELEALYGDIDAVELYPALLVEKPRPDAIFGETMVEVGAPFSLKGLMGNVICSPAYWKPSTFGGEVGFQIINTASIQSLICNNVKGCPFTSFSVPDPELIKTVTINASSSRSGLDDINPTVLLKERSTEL
# ASSAY_NOTES: biochemical
# Assay type: cell-based, Sf9, Microsomes
# Description: Inhibitory activity against human recombinant Prostaglandin G/H synthase 2 expressed in microsomes taken from baculovirus infected Sf9 cells
OBSERVATION_TYPE: IC50

Value (IC50, Prostaglandin G/H synthase 2 (Homo sapiens, UniProt P35354)) for record CS(=O)(=O)c1ccc(-c2csc(CC(=O)O)c2-c2ccc(F)cc2)cc1 = > 10 µM

Value (IC50, Prostaglandin G/H synthase 2 (Homo sapiens, UniProt P35354)) for record CS(=O)(=O)c1ccc(-c2ocnc2-c2ccc(F)cc2)cc1 = > 30 µM

Value (IC50, Prostaglandin G/H synthase 2 (Homo sapiens, UniProt P35354)) for record CS(=O)(=O)c1ccc(-c2c(-c3ccc(F)cc3)csc2CC(=O)O)cc1 = > 10 µM

Value (IC50, Prostaglandin G/H synthase 2 (Homo sapiens, UniProt P35354)) for record CS(=O)(=O)c1ccc(-c2ncoc2-c2ccc(F)cc2)cc1 = > 30 µM

Value (IC50, Prostaglandin G/H synthase 2 (Homo sapiens, UniProt P35354)) for record CS(=O)(=O)c1ccc(-c2oc(=O)oc2-c2ccccc2)cc1 = > 30 µM

Value (IC50, Prostaglandin G/H synthase 2 (Homo sapiens, UniProt P35354)) for record CS(=O)(=O)c1ccc(-n2nnnc2-c2ccc(F)c(F)c2)cc1 = > 30 µM

Value (IC50, Prostaglandin G/H synthase 2 (Homo sapiens, UniProt P35354)) for record CS(=O)(=O)c1ccc(-c2nnnn2-c2ccc(F)c(F)c2)cc1 = > 30 µM

Value (IC50, Prostaglandin G/H synthase 2 (Homo sapiens, UniProt P35354)) for record CS(=O)(=O)c1ccc(-c2c(-c3ccc(F)cc3)csc2Br)cc1 = > 30 µM

Value (IC50, Prostaglandin G/H synthase 2 (Homo sapiens, UniProt P35354)) for record CS(=O)(=O)c1ccc(-c2[nH]cnc2-c2ccc(F)cc2)cc1 = > 30 µM

Value (IC50, Prostaglandin G/H synthase 2 (Homo sapiens, UniProt P35354)) for record CS(=O)(=O)c1ccc(-c2[nH]nnc2-c2ccccc2)cc1 = > 30 µM

Value (IC50, Prostaglandin G/H synthase 2 (Homo sapiens, UniProt P35354)) for record CC(C)(O)c1scc(-c2ccc(F)cc2)c1-c1ccc(S(C)(=O)=O)cc1 = > 30 µM
